System: SK-OV-3 ovarian
assayInfo: NCI tumour cell line growth inhibition, 48 h; in the data active means GI50 below about 0.43 µM; inactive means the rest
Thanks in advance; please answer with one of these: label 1 = active, label 0 = inactive

1) O=C(/C=C/c1cccs1)c1ccc(Cl)cc1Cl; label 0
2) Cn1cc(-c2nonc2-c2cn(C)c3ccc(F)cc23)c2ccccc21; label 0

Turning now to a further record.
Problem: # outcome recorded in this test, key = CC(=O)OCc1cnc2c3c(nc4ccccc4c13)C(=O)c1cccnc1-2
Result: label 1

* * *

Reported values of GI50 for individual entries
System: HCT-15 colon
assayInfo: NCI tumour cell line growth inhibition, 48 h

Answered cases to consult:
1) Clc1ccc(CNc2ccc3nc(CCC4CCCCC4)[nH]c3c2)cc1; 1.83 µM
2) N[C@H]1C[C@@H]1c1ccc(-c2cccc(O)c2)cc1; 26.7 µM

// moving on: another record for GI50
Problem: Please give the measured GI50 for this molecule: O=c1[nH]cnc2c1ccn2C1OC(CO)C(O)C1O (stereo not drawn)
Result: 4.1 µM
